- target.desc: Proteasome component C5 (Homo sapiens)
- Sequence (whole entry): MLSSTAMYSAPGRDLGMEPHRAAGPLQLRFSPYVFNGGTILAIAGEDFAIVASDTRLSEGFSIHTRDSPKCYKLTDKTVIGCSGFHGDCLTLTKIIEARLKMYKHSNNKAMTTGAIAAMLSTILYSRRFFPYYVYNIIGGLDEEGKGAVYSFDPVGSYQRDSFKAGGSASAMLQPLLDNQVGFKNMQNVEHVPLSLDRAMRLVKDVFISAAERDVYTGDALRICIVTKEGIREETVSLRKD
- protocol.summary: Inhibition of 26S proteasome beta 1 in human HEK293 cell lysate assessed as residual activity at 13.5 uM after 1 hr
- Type: cell-free
Reported Activity values for the following compounds.
Unit % implied. Number only.

Consider the reported Activity for these compounds:
compound | target.desc | result.unit | Activity
CC(C)C[C@H](NC(=O)[C@H](Cc1ccccc1)NC(=O)[C@H](Cc1c(F)c(F)c(F)c(F)c1F)NC(=O)[C@H](Cc1ccccc1)N=[N+]=[N-])C(=O)[C@@]1(C)CO1 | Proteasome component C5 (Homo sapiens) | % | 73.1
CC(C)C[C@H](NC(=O)[C@H](Cc1cc(C(F)(F)F)cc(C(F)(F)F)c1)NC(=O)[C@H](Cc1ccccc1)NC(=O)[C@H](Cc1ccccc1)N=[N+]=[N-])C(=O)[C@@]1(C)CO1 | Proteasome component C5 (Homo sapiens) | % | 50.3

Entry CC(C)C[C@H](NC(=O)[C@H](Cc1cc(C(F)(F)F)cc(C(F)(F)F)c1)NC(=O)c1cnccn1)B1OC2C[C@@H]3C[C@@H](C3(C)C)[C@]2(C)O1 (stereo partly drawn) , Activity reported as 0.5

---

- target.desc: Proteasome Macropain subunit (Homo sapiens) (UniProt P49721)
- Sequence (P49721 whole entry): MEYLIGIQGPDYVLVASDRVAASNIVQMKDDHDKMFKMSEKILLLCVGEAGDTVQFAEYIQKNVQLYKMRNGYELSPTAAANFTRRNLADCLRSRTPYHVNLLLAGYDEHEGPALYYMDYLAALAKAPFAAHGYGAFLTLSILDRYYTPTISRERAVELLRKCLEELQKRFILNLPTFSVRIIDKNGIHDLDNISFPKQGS
- protocol.summary: Inhibition of 26S proteasome beta 2 in human HEK293 cell lysate assessed as residual activity at […] after 1 hr
- Assay type: cell-free
parameter: Activity (%)
Unit % implied. Number only.

Consider the reported Activity for these molecules:
molecule | target.desc | parameter | reported
CC(C)C[C@H](NC(=O)[C@H](Cc1ccccc1)NC(=O)[C@H](Cc1ccccc1)NC(=O)[C@H](Cc1ccccc1)N=[N+]=[N-])C(=O)[C@@]1(C)CO1 | Proteasome Macropain subunit (Homo sapiens) (UniProt P49721) | Activity | 26.1
CC1=CC(C)=[N+]2C1=C(CCCCc1cn([C@@H](Cc3ccccc3)C(=O)N[C@@H](Cc3ccccc3)C(=O)N[C@@H](Cc3c(F)c(F)c(F)c(F)c3F)C(=O)N[C@@H](CC(C)C)C(=O)[C@@]3(C)CO3)nn1)c1c(C)cc(C)n1[B-]2(F)F | Proteasome Macropain subunit (Homo sapiens) (UniProt P49721) | Activity | 106
CC(C)C[C@H](NC(=O)[C@H](Cc1cc(C(F)(F)F)cc(C(F)(F)F)c1)NC(=O)c1cnccn1)B1OC2C[C@@H]3C[C@@H](C3(C)C)[C@]2(C)O1 (stereo not given in full) | Proteasome Macropain subunit (Homo sapiens) (UniProt P49721) | Activity | 63.7
CC(C)C[C@H](NC(=O)[C@H](Cc1ccccc1)NC(=O)[C@H](Cc1c(F)c(F)c(F)c(F)c1F)NC(=O)[C@H](Cc1ccccc1)N=[N+]=[N-])C(=O)[C@@]1(C)CO1 | Proteasome Macropain subunit (Homo sapiens) (UniProt P49721) | Activity | 119

API: the following record is the query input.
Observed Activity, Proteasome Macropain subunit (Homo sapiens) (UniProt P49721), `CC(C)C[C@H](NC(=O)[C@H](Cc1c(F)c(F)c(F)c(F)c1F)NC(=O)[C@H](Cc1ccccc1)NC(=O)[C@H](Cc1ccccc1)N=[N+]=[N-])C(=O)[C@@]1(C)CO1` : 71

---

- target.desc: Proteasome subunit beta type-5 (Homo sapiens)
- protocol.summary: Inhibition of 26S proteasome beta 5 in human HEK293 cell lysate assessed as residual activity at 0.167 uM after 1 hr
parameter: Activity (%)
Unit % implied. Number only.

Consider the reported Activity for these compounds:
compound | reported
CC(C)C[C@H](NC(=O)[C@H](Cc1cc(C(F)(F)F)cc(C(F)(F)F)c1)NC(=O)c1cnccn1)B1OC2C[C@@H]3C[C@@H](C3(C)C)[C@]2(C)O1 (some centres undefined) | 8.8
CC(C)C[C@H](NC(=O)[C@H](Cc1ccccc1)NC(=O)[C@H](Cc1c(F)c(F)c(F)c(F)c1F)NC(=O)[C@H](Cc1ccccc1)N=[N+]=[N-])C(=O)[C@@]1(C)CO1 | 48.9
CC(C)C[C@H](NC(=O)[C@H](Cc1ccccc1)NC(=O)[C@H](Cc1cc(C(F)(F)F)cc(C(F)(F)F)c1)NC(=O)[C@H](Cc1ccccc1)N=[N+]=[N-])C(=O)[C@@]1(C)CO1 | 44.3

API: the following record is the query input.
Observed Activity, Proteasome subunit beta type-5 (Homo sapiens), `CC(C)C[C@H](NC(=O)[C@H](Cc1cc(C(F)(F)F)cc(C(F)(F)F)c1)NC(=O)[C@H](Cc1ccccc1)NC(=O)[C@H](Cc1ccccc1)N=[N+]=[N-])C(=O)[C@@]1(C)CO1` : 34.9

---

- target.desc: Proteasome component C5 (Homo sapiens)
- Sequence (whole entry): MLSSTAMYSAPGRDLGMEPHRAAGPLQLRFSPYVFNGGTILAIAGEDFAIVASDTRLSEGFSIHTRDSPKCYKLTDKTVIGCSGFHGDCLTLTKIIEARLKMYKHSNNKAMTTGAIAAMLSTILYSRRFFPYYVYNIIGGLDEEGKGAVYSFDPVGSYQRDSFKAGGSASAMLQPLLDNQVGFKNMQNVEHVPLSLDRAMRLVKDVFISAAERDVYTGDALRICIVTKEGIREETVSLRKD
- protocol.summary: Inhibition of 26S proteasome beta 1 in human HEK293 cell lysate assessed as residual activity at 0.006 uM after 1 hr
- Assay type: cell-free
Reported Activity values for the following molecules.
Unit % implied. Number only.

molecule | result.unit | Activity
CC(C)C[C@H](NC(=O)[C@H](Cc1c(F)c(F)c(F)c(F)c1F)NC(=O)[C@H](Cc1ccccc1)NC(=O)[C@H](Cc1ccccc1)N=[N+]=[N-])C(=O)[C@@]1(C)CO1 | % | 77.3
CC(C)C[C@H](NC(=O)[C@H](Cc1cc(C(F)(F)F)cc(C(F)(F)F)c1)NC(=O)c1cnccn1)B1OC2C[C@@H]3C[C@@H](C3(C)C)[C@]2(C)O1 (stereo partly specified) | % | 93.2

Entry `CC(C)C[C@H](NC(=O)[C@H](Cc1cc(C(F)(F)F)cc(C(F)(F)F)c1)NC(=O)[C@H](Cc1ccccc1)NC(=O)[C@H](Cc1ccccc1)N=[N+]=[N-])C(=O)[C@@]1(C)CO1` , Activity reported as 97.8

Entry `CC(C)C[C@H](NC(=O)[C@H](Cc1ccccc1)NC(=O)[C@H](Cc1cc(C(F)(F)F)cc(C(F)(F)F)c1)NC(=O)[C@H](Cc1ccccc1)N=[N+]=[N-])C(=O)[C@@]1(C)CO1` , Activity reported as 96.9

Entry `CC(C)C[C@H](NC(=O)[C@H](Cc1ccccc1)NC(=O)[C@H](Cc1ccccc1)NC(=O)[C@H](Cc1ccccc1)N=[N+]=[N-])C(=O)[C@@]1(C)CO1` , Activity reported as 96.5

Entry CC(C)C[C@H](NC(=O)[C@H](Cc1c(F)c(F)c(F)c(F)c1F)NC(=O)c1cnccn1)B1OC2C[C@@H]3C[C@@H](C3(C)C)[C@]2(C)O1 (stereo partly specified) , Activity reported as 97.5

---

- target.desc: Proteasome Macropain subunit (Homo sapiens)
- protocol.summary: Inhibition of 26S proteasome beta 2 in human HEK293 cell lysate assessed as residual activity at 13.5 uM after 1 hr
- Type: cell-free
parameter: Activity

Consider the reported Activity for these compounds:
compound | target.desc | Activity
CC(C)C[C@H](NC(=O)[C@H](Cc1ccccc1)NC(=O)[C@H](Cc1cc(C(F)(F)F)cc(C(F)(F)F)c1)NC(=O)[C@H](Cc1ccccc1)N=[N+]=[N-])C(=O)[C@@]1(C)CO1 | Proteasome Macropain subunit (Homo sapiens) | 73.4%
CC(C)C[C@H](NC(=O)[C@H](Cc1c(F)c(F)c(F)c(F)c1F)NC(=O)c1cnccn1)B1OC2C[C@@H]3C[C@@H](C3(C)C)[C@]2(C)O1 (stereo partly drawn) | Proteasome Macropain subunit (Homo sapiens) | 110%

Entry `CC(C)C[C@H](NC(=O)[C@H](Cc1cc(C(F)(F)F)cc(C(F)(F)F)c1)NC(=O)[C@H](Cc1ccccc1)NC(=O)[C@H](Cc1ccccc1)N=[N+]=[N-])C(=O)[C@@]1(C)CO1` , Activity reported as 57.9%

---

- target.desc: Proteasome Macropain subunit (Homo sapiens)
- protocol.summary: Displacement of fluorescent labeled MV151 from 26S proteasome beta 2 in human HEK293 cell lysate assessed as residual activity at 100 uM after 1 hr by SDS-PAGE
- Assay type: cell-free
parameter: Activity (%)
Unit % implied. Number only.

chemical.string | Activity (%)
CC(C)C[C@H](NC(=O)[C@H](Cc1c(F)c(F)c(F)c(F)c1F)NC(=O)[C@H](Cc1ccccc1)NC(=O)[C@H](Cc1ccccc1)N=[N+]=[N-])C(=O)[C@@]1(C)CO1 | 116
CC(C)C[C@H](NC(=O)[C@H](Cc1ccccc1)NC(=O)[C@H](Cc1c(F)c(F)c(F)c(F)c1F)NC(=O)[C@H](Cc1ccccc1)N=[N+]=[N-])C(=O)[C@@]1(C)CO1 | 56.9
CC(C)C[C@H](NC(=O)[C@H](Cc1cc(C(F)(F)F)cc(C(F)(F)F)c1)NC(=O)[C@H](Cc1cc(C(F)(F)F)cc(C(F)(F)F)c1)NC(=O)[C@H](Cc1ccccc1)N=[N+]=[N-])C(=O)[C@@]1(C)CO1 | 149
CC(C)C[C@H](NC(=O)[C@H](Cc1ccccc1)NC(=O)[C@H](Cc1cc(C(F)(F)F)cc(C(F)(F)F)c1)NC(=O)[C@H](Cc1ccccc1)N=[N+]=[N-])C(=O)[C@@]1(C)CO1 | 128
CC(C)C[C@H](NC(=O)[C@H](Cc1cc(C(F)(F)F)cc(C(F)(F)F)c1)NC(=O)[C@H](Cc1ccccc1)NC(=O)[C@H](Cc1ccccc1)N=[N+]=[N-])C(=O)[C@@]1(C)CO1 | 92
CC(C)C[C@H](NC(=O)[C@H](Cc1c(F)c(F)c(F)c(F)c1F)NC(=O)[C@H](Cc1c(F)c(F)c(F)c(F)c1F)NC(=O)[C@H](Cc1ccccc1)N=[N+]=[N-])C(=O)[C@@]1(C)CO1 | 43.2

API: the following record is the query input.
Observed Activity, Proteasome Macropain subunit (Homo sapiens), `CC(C)C[C@H](NC(=O)[C@H](Cc1ccccc1)NC(=O)[C@H](Cc1ccccc1)NC(=O)[C@H](Cc1ccccc1)N=[N+]=[N-])C(=O)[C@@]1(C)CO1` : 133
